System: aldose reductase (Bos taurus)
Construct: purified aldose reductase is isolated in known manner from bovine lenses
Protocol summary: in vitro inhibition of purified aldose reductase from bovine lenses (reduction of glucose to sorbitol, spectrophotometric)
Condition description: aldose reductase preparation obtained from bovine lenses; read-out: concentration producing a 50% reduction in the conversion of glucose to sorbitol
pIC50: −log10 of the molar value.
Quantity measured: pIC50

{"columns": ["Molecule", "System", "Measured result"],
 "data": [
  ["O=C1NC(=O)C2(N1)C(=O)N(Cc1ccc(Br)cc1F)c1c(C(F)(F)F)cccc12 (racemic)", "aldose reductase (Bos taurus)", 7.98]
]}
